Tested on: gastric epithelium
Assay: method of Goldemberg, ulceration by pylorus ligature (ulcerogenic effect)
Format: in vivo, Sprague-Dowley rats
Conditions: score 0=no hemorrhagic spots to 6=perforated ulcer; control (distilled water) 2.0; mg/Kg: phenylbutazone 75, acid 47, acetylsalicylic acid 200, phthalidyl ester 69
PROPERTY LABEL: ulceration Score
Give a plain numeric answer without units written out.

Example entries begin here.
[[record]]
compound = "O=C(O)c1cccnc1Nc1cccc(C(F)(F)F)c1 [TNA]"
observed_result = 3.3

[[record]]
compound = "CC(=O)Oc1ccccc1C(=O)O [Acetylsalicylic acid]"
observed_result = 3.9

[[record]]
compound = "CCCCC1C(=O)N(c2ccccc2)N(c2ccccc2)C1=O [Phenylbutazone]"
observed_result = 4.3


Field: next compound
Form field ulceration Score for item O=C1OC(OC(=O)c2cccnc2Nc2cccc(C(F)(F)F)c2)c2ccccc21 (stereo not shown) [PTP] on gastric epithelium: 2.0
